Test system: MS2 coat protein
METHOD_DESCRIPTION: apparent KD of MS2 coat protein; designed switch direction (-1 OFF switch, 1 ON switch): -1; higher = weaker reporter binding
CONDITION: Eterna round: R95; input ligand: microRNA oligo, concentration not stated
MEASURED_METRIC: apparent KD of MS2 coat protein (nM)
Output spec: scalar in nM, unitless text.

# annotated cases, reported apparent KD of MS2 coat protein shown
Find the recorded apparent KD of MS2 coat protein belonging to AAGAAACGAGGAUAUACAAUUAAGAGAGAGAAGGAAAUGAGACAUGAGGAUCACCCAUGUAGAAGGCGUAAGAA [JR_Exclu2_Sub082] (puzzle: Exclusion 2) and report it.
31.1

Find the recorded apparent KD of MS2 coat protein belonging to AGUAACUAUCACGAAAGUGAUAGUUACAAUAGCAGUGAAACAUGAGGAUCACCCAUGUCCUCAUUUGCUCGUCUUAU [Sensor 3 - 23] (puzzle: Sensor v3, turn-off variant 2) and report it.
566

Find the recorded apparent KD of MS2 coat protein belonging to CUUUUGUGAGGAUAUCAGGUGUGCUAGCGUACUGGUACAUCUGAGAAGGCACAUGAGGAUCACCCAUGUUCCUU [JL-ex4-3.18 Brourd mod] (puzzle: Exclusion 4) and report it.
13.5

Find the recorded apparent KD of MS2 coat protein belonging to CUUCGACAUGAGGAUCACCCAUGUCAGGAUAUUGUUUAUCUGGUGUUGUCCAGAUAUGCAAGAAGGGAUGUGUG [LRO-Excl1-04] (puzzle: Exclusion 1) and report it.
33.8

Find the recorded apparent KD of MS2 coat protein belonging to UUUGUUGUUGUGAGGAUAUCGUUGUUAUUUUGAAACGAGAAGGCACAUGAGGAUCACCCAUGUUUGUUGUUGGU [JR_BMOE4_Sub059] (puzzle: Brourd's mod of Exclusion 4) and report it.
48.8

Find the recorded apparent KD of MS2 coat protein belonging to ACAACAAGCUUUUUGUUCGUAGAACAUGAUGCUCUAGUCACAUGAGGAUCACCCAUGUCAGCCAGUUAGAUAGGUGA [JR_SV3TOV2_Sub064] (puzzle: Sensor v3, turn-off variant 2) and report it.
133

Find the recorded apparent KD of MS2 coat protein belonging to GUGUACGGAGGAUAUAUAUGGGCAGGCUGACCUGCAGCUUCACAUGAGGAUCACCCAUGUAGAAGGCUGUACAC [Mat - Exclusion 2 - Mod of Hyphema - D98] (puzzle: Exclusion 2) and report it.
33.2

Find the recorded apparent KD of MS2 coat protein belonging to AAUUCACAUGAGGAUCACCCAUGUCAGGAUAUGGUUUCACGUUUUUCUUUGCUUGAGGCCAGAAGGGACAGCUA (puzzle: Exclusion 1) and report it.
54.2

More entries:
Find the recorded apparent KD of MS2 coat protein belonging to AAUAACAGGCCGAUCCUAAACAUGAGGAUCACCCAUGUGCGCGUCUUGUAAAGUACUAUCACGAAAGUGAUAGUACA [Sensor v3, turn-off variant 1 (MOD of Eli's v1-59 v.3)] (puzzle: Sensor v3, turn-off variant 1) and report it.
37.1

Find the recorded apparent KD of MS2 coat protein belonging to GACUGCUGAGGAUAUACAUGAGGAUCACCCAUGUGCUUCAGUAUCGAAAGAUGCAUGGGUAGAAGGUGGUAGUC [LRO-Excl3-09] (puzzle: Exclusion 3) and report it.
80.1

Find the recorded apparent KD of MS2 coat protein belonging to UCUUAUUGCAAGGAUAUGCUAUUUAUUUUUUUUGCAGAAGGUGCAACAUGAGGAUCACCCAUGUUUCCGGGCAU [JR_E6_Sub036] (puzzle: Exclusion 6) and report it.
20.3

Find the recorded apparent KD of MS2 coat protein belonging to CCUAUGUGAGGAUAUCACUGGUCUUCUCACUGGAUGAUUAGUGAGAAGGCACAUGAGGAUCACCCAUGUCGGUG [Ex4 - 3 - 51] (puzzle: Exclusion 4) and report it.
524

Find the recorded apparent KD of MS2 coat protein belonging to UCGGCGCGAGGAUAUACGUUUGCUUUUUGGGAUCGUUGCGUACAUGAGGAUCACCCAUGUAGAAGGCGCGCCGC [Apr-15 SS2-26] (puzzle: Exclusion 2) and report it.
15.9

Find the recorded apparent KD of MS2 coat protein belonging to AGUACUAACACGAGAGUGUUAGUACUAUAAGCUUGUGUUACAUGAGGAUCACCCAUGUCCUCAUAAGCUCGUCUUAU [Mat - Sensor v3 - Turn-off var 2 - D79] (puzzle: Sensor v3, turn-off variant 2) and report it.
40.5

Find the recorded apparent KD of MS2 coat protein belonging to GAUUGACAUGAGGAUCACCCAUGUGAGGAUAUCGGCUGGACCGUGUUGGCUUGCUUUUCGAGAAGGCGCAUAGG [Exclusion 1 V49] (puzzle: Exclusion 1) and report it.
36.8

Find the recorded apparent KD of MS2 coat protein belonging to UUUUAACAUGAGGAUCACCCAUGUGAGGAUAUCGAAAUUUAUAUUUAUAUUAAUUAUUCGAGAAGGCACAUUUU [JMF 85] (puzzle: Exclusion 1) and report it.
131

Find the recorded apparent KD of MS2 coat protein belonging to CGUGCGUAUGUGAGGAUAUGCUGGUCCUUGGAUCGGCAGAAGGCACAUGAGGAUCACCCAUGUGGUGUCGUACC [salish99_Bmod_ex4_074] (puzzle: Brourd's mod of Exclusion 4) and report it.
123

Find the recorded apparent KD of MS2 coat protein belonging to CAGUACUGAGGAUAUACAUGAGGAUCACCCAUGUGUUCCAGCGAGGAAACUAGCAAAAGUAGAAGGCAGUACUG [salish99_ex3_r3_077] (puzzle: Exclusion 3) and report it.
18.4

Find the recorded apparent KD of MS2 coat protein belonging to GGUUGACAUGAGGAUCACCCAUGUGAGGAUAUGCGAGAGAAAAAAGUGAGGAAGAAGAGCAGAAGGCGCUGUCG [salish99-ex1_r3_012] (puzzle: Exclusion 1) and report it.
134

Find the recorded apparent KD of MS2 coat protein belonging to CCGGAAAUACAGGAUAUAGGAGUCGAUAGACUCCUAGAAGGGUAUACAUGAGGAUCACCCAUGUUCCUUACCGG [Fiskers Ex 6 - 72] (puzzle: Exclusion 6) and report it.
36.9

Find the recorded apparent KD of MS2 coat protein belonging to GAGAGGUCAGGAUAUACGGAGAGAGGGAGUUGGUGAGGGUAACAUGAGGAUCACCCAUGUAGAAGGGACUAAGG [JR_Exclu2_Sub077] (puzzle: Exclusion 2) and report it.
22.8
